- method_summary: Oral bioavailability in Beagle dog at 2 mg/kg
- Type: ADME, organism-based, Canis lupus familiaris
- cond: in vivo
parameter: bioavailability

Asked: Report bioavailability for "COc1ncc(-c2ccc(C(=O)O)cc2C)cc1-c1ccc(C(F)(F)F)cc1[C@@H]1CC[C@H]2[C@@H](c3cc(C(F)(F)F)cc(C(F)(F)F)c3)OC(=O)N12" please.
Given back: 14%

* * *

solubility thermodynamic for assorted compounds
- method_summary: Solubility of the compound in pH 7 phosphate buffer by shake-flask method
- Assay type: physicochemical
State just the number; it will be interpreted in µM.

>  <compound_string>
COc1ccc(-c2ccc(C(=O)O)cc2C)cc1-c1cnc(N(C)C)nc1CN1C(=O)O[C@H](c2cc(C(F)(F)F)cc(C(F)(F)F)c2)[C@@H]1C

>  <solubility thermodynamic / µM>
43

$$$$
>  <compound_string>
COc1ccc(-c2ccc(C(=O)O)cc2C)cc1-c1cnc(C(C)(F)F)nc1CN1C(=O)O[C@H](c2cc(C(F)(F)F)cc(C(F)(F)F)c2)[C@@H]1C

>  <solubility thermodynamic / µM>
20

$$$$

Asked: Report solubility thermodynamic for "COc1ncc(-c2ccc(C(=O)O)cc2C)cc1-c1ccc(C(F)(F)F)nc1CN1C(=O)O[C@H](c2cc(C(F)(F)F)cc(C(F)(F)F)c2)[C@@H]1C" please.
Given back: 9

Asked: Report solubility thermodynamic for "COc1ncc(-c2cc(-c3ccc(C(=O)O)cc3C)ccc2OC)c(CN2C(=O)O[C@H](c3cc(C(F)(F)F)cc(C(F)(F)F)c3)[C@@H]2C)n1" please.
Given back: 52

Asked: Report solubility thermodynamic for "COc1ncc(-c2ccc(C(=O)O)cc2C)cc1-c1cc(C(F)(F)F)c(OC)nc1CN1C(=O)O[C@H](c2cc(C(F)(F)F)cc(C(F)(F)F)c2)[C@@H]1C" please.
Given back: 5

Asked: Report solubility thermodynamic for "COc1ccc(-c2ccc(C(=O)O)cc2C)cc1-c1cnc(N2CC(F)C2)nc1CN1C(=O)O[C@H](c2cc(C(F)(F)F)cc(C(F)(F)F)c2)[C@@H]1C" please.
Given back: 8

Asked: Report solubility thermodynamic for "COc1ccc(-c2ccc(C(=O)O)cc2C)cc1-c1cnc(C(F)(F)F)nc1CN1C(=O)O[C@H](c2cc(C(F)(F)F)cc(C(F)(F)F)c2)[C@@H]1C" please.
Given back: 6

Asked: Report solubility thermodynamic for "COc1ccc(-c2ccc(C(=O)O)cc2C)cc1-c1ccc(C(F)(F)F)nc1CN1C(=O)O[C@H](c2cc(C(F)(F)F)cc(C(F)(F)F)c2)[C@@H]1C" please.
Given back: 29

Asked: Report solubility thermodynamic for "Cc1cc(C(=O)O)ccc1-c1ccc(Cl)c(-c2ccc(C(F)(F)F)cc2CN2C(=O)O[C@H](c3cc(C(F)(F)F)cc(C(F)(F)F)c3)[C@@H]2C)c1" please.
Given back: 43
